Biological target: Factor X (FX), P00742
Sequence (P00742 whole entry, looked up): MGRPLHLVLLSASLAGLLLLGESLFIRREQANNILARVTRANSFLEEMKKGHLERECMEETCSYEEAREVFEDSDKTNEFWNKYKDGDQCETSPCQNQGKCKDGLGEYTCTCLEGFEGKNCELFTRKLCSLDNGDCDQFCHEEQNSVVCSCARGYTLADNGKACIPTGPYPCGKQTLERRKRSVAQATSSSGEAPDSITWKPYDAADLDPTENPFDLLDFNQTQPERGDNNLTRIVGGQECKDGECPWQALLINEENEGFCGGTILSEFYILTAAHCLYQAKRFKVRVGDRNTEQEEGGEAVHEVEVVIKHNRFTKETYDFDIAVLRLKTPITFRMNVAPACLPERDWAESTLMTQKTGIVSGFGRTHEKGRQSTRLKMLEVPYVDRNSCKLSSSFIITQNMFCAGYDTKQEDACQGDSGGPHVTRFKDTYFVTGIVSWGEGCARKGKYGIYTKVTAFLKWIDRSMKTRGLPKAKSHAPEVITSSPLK
RECORDED_ENDPOINT: kcat/KM (M⁻¹ s⁻¹)
Answers are plain numbers, in M⁻¹ s⁻¹.

Lab note: each protein below needs its kcat/KM filled in.
1. FIXa-D104N/K106S/Y155F/K228N/K247N/N249S (protein) chain 1: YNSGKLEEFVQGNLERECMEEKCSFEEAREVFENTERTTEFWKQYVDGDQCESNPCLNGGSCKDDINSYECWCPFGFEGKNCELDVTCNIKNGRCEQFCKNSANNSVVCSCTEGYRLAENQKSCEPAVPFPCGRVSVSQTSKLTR chain 2: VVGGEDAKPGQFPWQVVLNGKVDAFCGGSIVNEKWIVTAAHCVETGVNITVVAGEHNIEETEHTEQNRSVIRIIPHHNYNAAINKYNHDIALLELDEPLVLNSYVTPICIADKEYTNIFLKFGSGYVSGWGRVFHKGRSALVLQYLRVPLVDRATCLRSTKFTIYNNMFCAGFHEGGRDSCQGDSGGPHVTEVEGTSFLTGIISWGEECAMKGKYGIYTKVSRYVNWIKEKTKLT
2. FIXa variant D203N/F205T/R338E (protein) chain 1: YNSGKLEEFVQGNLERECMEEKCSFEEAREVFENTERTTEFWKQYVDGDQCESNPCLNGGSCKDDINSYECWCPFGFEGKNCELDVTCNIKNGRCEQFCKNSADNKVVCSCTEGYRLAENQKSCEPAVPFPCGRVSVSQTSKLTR chain 2: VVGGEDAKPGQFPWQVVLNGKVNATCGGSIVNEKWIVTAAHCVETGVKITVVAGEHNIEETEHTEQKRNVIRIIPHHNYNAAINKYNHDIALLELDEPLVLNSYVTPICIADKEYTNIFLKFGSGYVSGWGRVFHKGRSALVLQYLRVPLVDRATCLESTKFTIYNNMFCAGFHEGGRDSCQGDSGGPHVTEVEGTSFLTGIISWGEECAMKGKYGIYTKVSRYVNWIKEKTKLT
3. FIXa variant A103N/N105S/Y155F/R318Y/R338E/R403E/E410N (protein) chain 1: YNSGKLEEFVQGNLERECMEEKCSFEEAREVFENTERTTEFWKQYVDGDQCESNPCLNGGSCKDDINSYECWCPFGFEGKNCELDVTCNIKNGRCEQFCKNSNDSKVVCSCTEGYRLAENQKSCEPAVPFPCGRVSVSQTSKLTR chain 2: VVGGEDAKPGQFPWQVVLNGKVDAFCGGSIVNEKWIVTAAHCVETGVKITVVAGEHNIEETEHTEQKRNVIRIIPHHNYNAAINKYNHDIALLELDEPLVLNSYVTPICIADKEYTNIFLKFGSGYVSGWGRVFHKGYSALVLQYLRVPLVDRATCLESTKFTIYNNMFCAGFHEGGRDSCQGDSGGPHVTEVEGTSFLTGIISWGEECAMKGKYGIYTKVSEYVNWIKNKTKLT
4. FIXa variant D203N/F205T/R338E/R403E (protein) chain 1: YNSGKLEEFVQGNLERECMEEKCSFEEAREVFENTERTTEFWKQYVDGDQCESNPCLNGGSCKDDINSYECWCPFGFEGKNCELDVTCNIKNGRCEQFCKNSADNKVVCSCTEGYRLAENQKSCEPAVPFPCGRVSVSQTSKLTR chain 2: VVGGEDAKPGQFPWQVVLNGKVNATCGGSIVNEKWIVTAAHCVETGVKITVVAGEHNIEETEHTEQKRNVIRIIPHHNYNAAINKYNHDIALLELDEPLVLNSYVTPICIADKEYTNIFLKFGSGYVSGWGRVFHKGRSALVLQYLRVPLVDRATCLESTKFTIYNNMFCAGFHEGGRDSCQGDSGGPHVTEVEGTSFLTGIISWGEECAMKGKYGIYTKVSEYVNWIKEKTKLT

[A]
6.3e+07
1e+08
1.3e+08
1.9e+07
